# target: Ros1 enzyme (Homo sapiens)
# Construct: 0.5 μg/ml Ros1 enzyme
# Sequence (P08922 28-2347): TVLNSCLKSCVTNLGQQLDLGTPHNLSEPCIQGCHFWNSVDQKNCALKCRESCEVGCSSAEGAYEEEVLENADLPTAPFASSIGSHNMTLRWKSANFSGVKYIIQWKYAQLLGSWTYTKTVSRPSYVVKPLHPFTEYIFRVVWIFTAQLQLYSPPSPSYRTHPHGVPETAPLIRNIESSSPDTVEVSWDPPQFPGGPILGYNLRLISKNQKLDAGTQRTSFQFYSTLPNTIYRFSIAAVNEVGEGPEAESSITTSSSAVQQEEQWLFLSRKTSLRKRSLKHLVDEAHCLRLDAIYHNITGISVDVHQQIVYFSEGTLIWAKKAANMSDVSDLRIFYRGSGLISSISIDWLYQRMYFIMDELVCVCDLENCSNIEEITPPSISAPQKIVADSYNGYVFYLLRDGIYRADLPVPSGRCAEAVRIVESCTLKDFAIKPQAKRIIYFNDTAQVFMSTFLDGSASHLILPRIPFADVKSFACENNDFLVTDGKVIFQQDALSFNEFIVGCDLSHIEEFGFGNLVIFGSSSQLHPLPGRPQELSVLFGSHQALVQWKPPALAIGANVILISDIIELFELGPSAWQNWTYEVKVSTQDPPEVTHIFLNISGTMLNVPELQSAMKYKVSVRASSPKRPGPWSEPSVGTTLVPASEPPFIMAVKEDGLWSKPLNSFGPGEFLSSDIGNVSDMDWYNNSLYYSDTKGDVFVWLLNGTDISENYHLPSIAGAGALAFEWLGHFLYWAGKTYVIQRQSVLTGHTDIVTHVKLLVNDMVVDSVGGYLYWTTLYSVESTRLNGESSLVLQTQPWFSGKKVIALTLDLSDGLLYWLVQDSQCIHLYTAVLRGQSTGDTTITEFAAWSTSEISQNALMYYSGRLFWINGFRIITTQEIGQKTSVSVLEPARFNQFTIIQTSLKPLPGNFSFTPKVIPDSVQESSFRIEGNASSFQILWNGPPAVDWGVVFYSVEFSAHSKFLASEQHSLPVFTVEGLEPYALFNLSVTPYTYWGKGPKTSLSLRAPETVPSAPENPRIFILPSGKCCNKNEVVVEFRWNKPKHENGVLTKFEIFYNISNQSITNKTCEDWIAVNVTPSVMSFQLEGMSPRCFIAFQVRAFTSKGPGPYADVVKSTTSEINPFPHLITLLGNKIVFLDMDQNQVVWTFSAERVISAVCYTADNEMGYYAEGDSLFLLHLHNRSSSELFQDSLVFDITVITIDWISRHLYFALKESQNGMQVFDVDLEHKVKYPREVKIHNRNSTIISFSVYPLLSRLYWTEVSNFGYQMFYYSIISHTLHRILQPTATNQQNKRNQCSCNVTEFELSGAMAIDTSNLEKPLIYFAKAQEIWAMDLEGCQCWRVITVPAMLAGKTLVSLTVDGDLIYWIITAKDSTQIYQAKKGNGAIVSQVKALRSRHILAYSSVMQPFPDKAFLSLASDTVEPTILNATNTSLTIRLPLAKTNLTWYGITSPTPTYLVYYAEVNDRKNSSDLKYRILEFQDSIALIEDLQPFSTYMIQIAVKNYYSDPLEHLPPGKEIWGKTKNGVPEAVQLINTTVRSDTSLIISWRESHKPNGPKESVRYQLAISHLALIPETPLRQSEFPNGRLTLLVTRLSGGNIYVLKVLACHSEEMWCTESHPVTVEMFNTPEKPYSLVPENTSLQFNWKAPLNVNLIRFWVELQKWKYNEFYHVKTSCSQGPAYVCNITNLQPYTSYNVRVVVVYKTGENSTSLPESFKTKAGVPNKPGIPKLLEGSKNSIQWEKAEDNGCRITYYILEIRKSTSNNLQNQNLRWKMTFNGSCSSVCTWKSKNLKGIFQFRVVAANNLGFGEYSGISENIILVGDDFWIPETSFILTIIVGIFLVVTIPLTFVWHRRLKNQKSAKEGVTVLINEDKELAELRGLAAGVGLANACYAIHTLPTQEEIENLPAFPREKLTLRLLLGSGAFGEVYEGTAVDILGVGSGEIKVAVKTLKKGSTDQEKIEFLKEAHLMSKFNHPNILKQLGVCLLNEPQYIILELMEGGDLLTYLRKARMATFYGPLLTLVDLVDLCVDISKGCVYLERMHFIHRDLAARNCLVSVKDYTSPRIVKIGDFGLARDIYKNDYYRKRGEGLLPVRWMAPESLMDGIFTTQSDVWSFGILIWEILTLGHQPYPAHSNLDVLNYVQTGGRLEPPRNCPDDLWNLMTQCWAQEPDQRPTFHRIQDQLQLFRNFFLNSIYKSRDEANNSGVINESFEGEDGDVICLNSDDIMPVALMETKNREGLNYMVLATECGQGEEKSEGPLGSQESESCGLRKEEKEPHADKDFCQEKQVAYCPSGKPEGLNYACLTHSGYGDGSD
# assay_explanation: Ros1 enzymatic assay
# Assay type: biochemical
# assay_setup: Ros1 enzymatic assay; read-out: ROS1 pIC50 (converted)
assay_endpoint: log10(IC50) (log10 of the value in nM)
Give log10 of IC50, with IC50 taken in nM.

Illustrative cases are given below, each with its answer.
- entry_smiles: "CC(C)c1ccc(COc2cc(F)c(-c3c(-c4ccncc4)nn4c3C(=O)NCC4)c(F)c2)cc1"
  target: "Ros1 enzyme (Homo sapiens)"
  log10(IC50): 2.70
- entry_smiles: "CC(C)c1ccc(COc2ccc(-c3c(-c4ccncc4F)nn4c3C(=O)NCC4)cc2)cc1"
  target: "Ros1 enzyme (Homo sapiens)"
  log10(IC50): 1.50
- entry_smiles: "COc1ccc(COc2ccc(-c3c(-c4ccncc4)nn4c3CNCC4)cc2)cc1"
  target: "Ros1 enzyme (Homo sapiens)"
  log10(IC50): 3.60

Name the recorded log10(IC50) for COc1cc(-c2c(-c3ccncc3)nn3c2C(=O)N(C)CC3)ccc1OCc1ccc(C(C)C)cc1 .
1.00

###

Could you label it TRUE if measured melting point is 200 °C or higher, and FALSE otherwise?

Does the compound CC(C)c1ccc(COc2ccc(-c3c(-c4ccncc4)nn4c3C(=O)N(CC(O)CO)CC4)cc2)c(F)c1F (centres unmarked) [Compound 102] have recorded melting point that is 200 °C or more?
FALSE

Same again, this time with O=C1NCCn2nc(-c3ccncn3)c(-c3ccc(OCc4ccc(C5CC5)cc4)cc3)c21
TRUE

Same again, this time with CC(C)c1ccc(C(C)Oc2ccc(-c3c(-c4ccncc4)nn4c3C(=O)N(CCO)CC4)cc2)cc1 (centres unmarked)
FALSE

###

# target: Ba/F3 cells containing Ros1 wild-type protein (Homo sapiens, UniProt P08922, cells depend on it, form not given)
# Construct: The background only speaks of 'a number of different unrelated proteins' and names SLC34A2-ROS1 for HCC78 cells
# Sequence (P08922 whole entry, stated change not applied): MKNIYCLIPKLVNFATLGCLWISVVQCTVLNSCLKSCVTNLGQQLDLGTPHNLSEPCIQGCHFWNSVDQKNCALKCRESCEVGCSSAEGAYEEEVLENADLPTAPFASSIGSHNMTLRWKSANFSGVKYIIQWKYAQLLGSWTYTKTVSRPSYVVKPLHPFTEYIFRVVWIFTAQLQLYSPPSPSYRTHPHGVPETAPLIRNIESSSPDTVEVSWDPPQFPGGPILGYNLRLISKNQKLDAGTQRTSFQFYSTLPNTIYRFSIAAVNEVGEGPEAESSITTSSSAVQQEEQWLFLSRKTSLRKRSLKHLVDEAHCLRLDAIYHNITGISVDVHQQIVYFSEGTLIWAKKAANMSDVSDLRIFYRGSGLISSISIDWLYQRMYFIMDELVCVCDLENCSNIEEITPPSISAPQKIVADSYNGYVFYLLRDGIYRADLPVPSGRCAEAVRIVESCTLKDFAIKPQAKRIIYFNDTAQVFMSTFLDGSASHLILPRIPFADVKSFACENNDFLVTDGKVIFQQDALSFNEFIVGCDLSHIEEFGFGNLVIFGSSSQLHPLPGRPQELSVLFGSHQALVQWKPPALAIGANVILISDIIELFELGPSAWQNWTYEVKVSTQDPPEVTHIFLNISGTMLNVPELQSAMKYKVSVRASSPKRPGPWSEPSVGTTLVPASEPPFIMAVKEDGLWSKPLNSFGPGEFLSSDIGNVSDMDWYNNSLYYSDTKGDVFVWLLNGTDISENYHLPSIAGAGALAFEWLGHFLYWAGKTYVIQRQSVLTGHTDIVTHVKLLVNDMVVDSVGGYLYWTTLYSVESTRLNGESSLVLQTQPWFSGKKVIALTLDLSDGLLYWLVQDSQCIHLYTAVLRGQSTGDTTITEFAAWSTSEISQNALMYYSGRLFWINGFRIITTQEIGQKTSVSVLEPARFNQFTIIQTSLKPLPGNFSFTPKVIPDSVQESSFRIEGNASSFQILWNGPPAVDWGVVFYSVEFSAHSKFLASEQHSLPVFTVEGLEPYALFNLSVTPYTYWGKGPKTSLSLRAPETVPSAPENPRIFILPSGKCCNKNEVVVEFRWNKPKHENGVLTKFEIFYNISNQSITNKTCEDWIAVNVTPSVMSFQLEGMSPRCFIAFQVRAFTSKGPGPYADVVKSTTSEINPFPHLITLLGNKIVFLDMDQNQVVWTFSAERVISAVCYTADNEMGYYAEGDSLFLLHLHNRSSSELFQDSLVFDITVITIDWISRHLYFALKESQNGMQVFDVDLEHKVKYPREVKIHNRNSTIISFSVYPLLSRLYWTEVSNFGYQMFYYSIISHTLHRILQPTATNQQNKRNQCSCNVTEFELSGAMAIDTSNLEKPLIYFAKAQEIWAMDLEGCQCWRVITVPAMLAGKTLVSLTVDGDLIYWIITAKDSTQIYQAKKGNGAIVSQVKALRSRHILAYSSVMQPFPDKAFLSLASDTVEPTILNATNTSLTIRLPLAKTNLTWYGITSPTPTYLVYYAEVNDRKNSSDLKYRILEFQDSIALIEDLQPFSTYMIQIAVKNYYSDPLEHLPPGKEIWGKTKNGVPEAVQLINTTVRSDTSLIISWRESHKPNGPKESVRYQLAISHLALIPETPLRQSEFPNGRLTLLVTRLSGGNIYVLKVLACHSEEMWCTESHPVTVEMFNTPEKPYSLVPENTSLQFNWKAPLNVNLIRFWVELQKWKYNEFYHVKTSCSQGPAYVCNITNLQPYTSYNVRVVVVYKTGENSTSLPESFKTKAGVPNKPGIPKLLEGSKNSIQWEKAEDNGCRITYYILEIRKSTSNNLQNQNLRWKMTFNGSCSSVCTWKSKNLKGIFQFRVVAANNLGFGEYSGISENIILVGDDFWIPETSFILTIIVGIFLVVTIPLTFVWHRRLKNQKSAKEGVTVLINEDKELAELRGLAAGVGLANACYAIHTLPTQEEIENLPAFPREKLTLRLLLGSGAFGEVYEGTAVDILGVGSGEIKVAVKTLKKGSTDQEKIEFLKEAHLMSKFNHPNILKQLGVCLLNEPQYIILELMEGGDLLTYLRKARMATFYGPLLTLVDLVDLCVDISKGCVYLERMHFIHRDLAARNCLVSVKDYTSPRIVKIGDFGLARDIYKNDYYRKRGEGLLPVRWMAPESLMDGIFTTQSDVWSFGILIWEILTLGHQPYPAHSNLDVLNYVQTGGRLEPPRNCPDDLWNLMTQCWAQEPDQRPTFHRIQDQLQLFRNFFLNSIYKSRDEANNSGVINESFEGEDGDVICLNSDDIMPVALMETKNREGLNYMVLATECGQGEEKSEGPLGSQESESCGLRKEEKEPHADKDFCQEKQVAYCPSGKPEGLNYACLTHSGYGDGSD
# assay_explanation: Ba/F3-Ros1 cell proliferation assay, wild-type Ros1
# Type: cell-based, murine
# assay_setup: without IL-3
Quick reference: BaF3-ROS1-IL3 pIC50 of the listed items.
Provide a numeric answer; units are not to be included.

Illustrative cases are given below, each with its answer.
- compound: "CC(C)c1ccc(COc2ccc(-c3c(-c4ncnc5[nH]ccc45)nn4c3C(=O)NCC4)cc2)cc1"
  BaF3-ROS1-IL3 pIC50: 7.0
- compound: "c1cc(-c2nn3c(c2-c2ccc(OCc4ccc(C5CC5)nc4)cc2)CNCC3)ccn1"
  BaF3-ROS1-IL3 pIC50: 6.2
- compound: "CC(C)c1ccc(COc2ccc(-c3c(-c4ccncn4)nn4c3C(=O)N(CC(O)CO)CC4)cc2)cc1 (stereo not shown)"
  BaF3-ROS1-IL3 pIC50: 7.1

Next compound, please.
Name the recorded BaF3-ROS1-IL3 pIC50 for CNC(=O)CN1CCn2nc(-c3ccncc3)c(-c3ccc(OCc4ccc(C(C)C)cc4)cc3F)c2C1 .
7.5

###

# target: Ba/F3 cells containing Ros1 with a mutation at the gatekeeper residue (L2026M) (Homo sapiens, UniProt P08922, L2026M, cells depend on it, form not given)
# Sequence (P08922 whole entry L2026M, form open): as the sequence (P08922 whole entry, stated change not applied) above, with L2026M counted along it
# assay_explanation: Ba/F3-Ros1 cell proliferation assay, L2026M gatekeeper mutant
# Type: cell-based, murine
# assay_setup: without IL-3
assay_endpoint: Ba/F3 Ros1 L2026M (-IL-3) pIC50
Provide a numeric answer; units are not to be included.

Illustrative cases are given below, each with its answer.
- compound: "CNCCc1cc(COc2ccc(-c3c(-c4ccncc4)nn4c3C(=O)N(CCO)CC4)cc2)ccc1C(C)C"
  Ba/F3 Ros1 L2026M (-IL-3) pIC50: 6.5
- compound: "CC(C)c1ccc(COc2ccc(-c3c(-c4ccncn4)nn4c3C(=O)N(CC3(C)COC3)CC4)cc2)cc1"
  Ba/F3 Ros1 L2026M (-IL-3) pIC50: 7.1
- compound: "CC(O)CN1CCn2nc(-c3ccncc3)c(-c3ccc(OCc4ccc(C(C)C)cc4)cc3)c2C1=O (stereo not drawn) [Compound 46]"
  Ba/F3 Ros1 L2026M (-IL-3) pIC50: 7.1
- compound: "CC(C)c1ccc(COc2ccc(-c3c(-c4ccncc4)nn4c3C(=O)NCC4)cc2C#N)cc1"
  Ba/F3 Ros1 L2026M (-IL-3) pIC50: 6.5
- compound: "CNCCN1CCn2nc(-c3ccncc3)c(-c3ccc(OCc4ccc(C(C)C)cc4)cc3)c2C1=O"
  Ba/F3 Ros1 L2026M (-IL-3) pIC50: 6.2

Next compound, please.
Name the recorded Ba/F3 Ros1 L2026M (-IL-3) pIC50 for CC(C)c1ccc(COc2ccc(-c3c(-c4ccncc4)nn4c3C(=O)NCC4)cc2)cc1CC(O)CO (stereo not drawn) .
6.6
